Target: Human recombinant AChE (Homo sapiens)
Sequence (P22303 32-614): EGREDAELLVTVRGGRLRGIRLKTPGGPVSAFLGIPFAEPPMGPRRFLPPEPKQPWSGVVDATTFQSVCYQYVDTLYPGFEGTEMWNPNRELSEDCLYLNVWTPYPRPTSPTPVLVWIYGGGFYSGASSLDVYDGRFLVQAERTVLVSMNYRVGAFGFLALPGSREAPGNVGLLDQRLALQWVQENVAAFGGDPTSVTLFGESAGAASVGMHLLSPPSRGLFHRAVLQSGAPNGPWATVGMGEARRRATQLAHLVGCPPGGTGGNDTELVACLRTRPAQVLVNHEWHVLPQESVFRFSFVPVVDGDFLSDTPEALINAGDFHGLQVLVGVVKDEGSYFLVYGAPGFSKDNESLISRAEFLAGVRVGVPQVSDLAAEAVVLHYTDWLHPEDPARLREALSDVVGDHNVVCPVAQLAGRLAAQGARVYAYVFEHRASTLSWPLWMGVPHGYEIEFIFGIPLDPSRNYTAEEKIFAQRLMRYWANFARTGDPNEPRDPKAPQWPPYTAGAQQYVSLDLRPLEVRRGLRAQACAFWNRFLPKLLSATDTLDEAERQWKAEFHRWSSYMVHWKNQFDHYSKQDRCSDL
Test: biochemical
Conditions: read-out: IC50 hAChE µM ± SD
Observation type: IC50 (µM)
Write the value in µM as a bare number.

The value of IC50 measured for the compound `COc1ccc2c(c1O)-c1c(O)c(OC)cc3c1[C@H](C2)[N+](C)(C)CC3` turned out to be 1120

====

Target: BuChE from human serum (Homo sapiens)
Sequence (P06276 29-602): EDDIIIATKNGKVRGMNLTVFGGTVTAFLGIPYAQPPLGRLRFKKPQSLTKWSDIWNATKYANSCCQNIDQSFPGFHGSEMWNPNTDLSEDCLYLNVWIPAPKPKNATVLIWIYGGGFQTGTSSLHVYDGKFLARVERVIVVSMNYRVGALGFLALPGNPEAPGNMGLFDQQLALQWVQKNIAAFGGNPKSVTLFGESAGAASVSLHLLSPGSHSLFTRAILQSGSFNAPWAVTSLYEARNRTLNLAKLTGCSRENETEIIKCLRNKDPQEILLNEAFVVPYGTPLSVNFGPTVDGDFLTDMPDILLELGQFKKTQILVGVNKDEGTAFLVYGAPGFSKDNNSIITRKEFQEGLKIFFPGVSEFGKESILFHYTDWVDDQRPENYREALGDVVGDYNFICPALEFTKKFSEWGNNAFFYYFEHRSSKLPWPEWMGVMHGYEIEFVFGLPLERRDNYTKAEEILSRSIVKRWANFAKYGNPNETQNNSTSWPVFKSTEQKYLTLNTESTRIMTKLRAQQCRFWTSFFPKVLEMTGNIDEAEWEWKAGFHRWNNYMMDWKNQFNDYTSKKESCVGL
Assay: biochemical
Type: biochemical
Details: read-out: IC50 hBuChE µM ± SD
Observation type: IC50 (µM)
Write the value in µM as a bare number.

The value of IC50 measured for the molecule `COc1ccc2c(c1O)-c1c(O)c(OC)cc3c1[C@H](C2)[N+](C)(C)CC3` turned out to be 131

====

Biological target: Human recombinant AChE (Homo sapiens)
Test: biochemical
Observation type: pIC50
A value of pIC50 is the negative decimal logarithm of a concentration given in moles per litre.

The value of pIC50 measured for the compound `COc1cc2c[n+](C)c3c4cc5c(cc4ccc3c2cc1OC)OCO5` turned out to be 5.27
